Sourced from patent US20210246122A1

biological target: Human cGAS amino acids 155-522 (Homo sapiens); construct: hexahistidine tag (N, cleaved yes); assay: cGAS activity assay (DNA-activated cGAS, remaining ATP measured by Kinase-Glo Max luciferase assay); conditions: 300 nM purified cGAS, 1 μM dsDNA, 250 μM ATP, 100 μM GTP, 37° C. for 1.25 hours
Sequence (Q8N884 157-522): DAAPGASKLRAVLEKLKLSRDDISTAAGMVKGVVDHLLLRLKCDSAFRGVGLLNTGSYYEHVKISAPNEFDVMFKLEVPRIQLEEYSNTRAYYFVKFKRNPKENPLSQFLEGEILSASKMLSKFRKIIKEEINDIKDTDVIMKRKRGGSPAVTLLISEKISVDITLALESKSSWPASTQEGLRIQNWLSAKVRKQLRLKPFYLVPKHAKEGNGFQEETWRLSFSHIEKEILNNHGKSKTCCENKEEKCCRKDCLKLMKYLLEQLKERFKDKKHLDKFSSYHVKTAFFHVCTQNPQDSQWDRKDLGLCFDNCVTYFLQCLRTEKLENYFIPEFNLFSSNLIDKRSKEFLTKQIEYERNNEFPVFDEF
pIC50: −log10 of the molar value.
observable: pIC50

molecule: COC(=O)[C@H](Cc1ccc(C#N)cc1)Nc1nc(NCc2nc3cc(Cl)ccc3[nH]2)nc(Nc2cccc(CN3CCN(C(=O)c4cccc(-n5cccn5)c4)CC3)c2)n1 [TA1060]
pIC50: < 3.60

Fill blank: measured pIC50 of the molecule Cc1cc2nc(CN(C)c3nc(Nc4cccc(CN5CCNCC5)c4)nc(N[C@@H](Cc4ccc(C#N)cc4)C(=O)N(C)C)n3)[nH]c2cc1C [TA1014] is ____.
< 3.60
